target: human GPR119 receptor (Homo sapiens, UniProt Q8TDV5); construct: host or cells: CHO; assay: LANCE Ultra cAMP assay: stimulation of GPR119-mediated cAMP production in CHO cells stably expressing human GPR119 receptor; format: cell-based; conditions: Table 2A entries 1-17; protocol as described (800,000 cells/mL suspension); CHO-GPR119 cells
Sequence (Q8TDV5 whole entry): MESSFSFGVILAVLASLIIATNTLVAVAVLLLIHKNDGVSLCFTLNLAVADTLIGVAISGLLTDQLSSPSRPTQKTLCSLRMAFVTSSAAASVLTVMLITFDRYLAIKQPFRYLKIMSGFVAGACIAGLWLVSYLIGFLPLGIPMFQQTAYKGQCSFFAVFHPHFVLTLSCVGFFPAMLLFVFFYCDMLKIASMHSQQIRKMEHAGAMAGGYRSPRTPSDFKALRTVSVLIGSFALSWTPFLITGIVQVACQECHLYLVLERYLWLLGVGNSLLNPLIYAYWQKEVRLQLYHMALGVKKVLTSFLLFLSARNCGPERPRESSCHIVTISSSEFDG
pEC50: −log10 of the molar value.
Catalogue of pEC50 readings, one per entry.
measurement_label: pEC50

>  <compound>
NC(=O)N1CCC(COc2ccc(-c3ccc4c(c3)OCS4(=O)=O)cc2F)CC1 [Example A-20]

>  <value>
5.00

$$$$
>  <compound>
NCC(=O)N1CCC(COc2ccc(-c3ccc4c(c3)OCS4(=O)=O)cc2F)CC1 [Example A-17]

>  <value>
5.00

$$$$
>  <compound>
O=C(O)CN1CCC(COc2ccc(-c3ccc4c(c3)OCS4(=O)=O)cc2F)CC1 [Example A-23]

>  <value>
5.15

$$$$

Hello, the source for this data is patent US11358956B2, in case you need it.
